# Test system: EFM192A
# METHOD SUMMARY: -log10 GI50 (growth inhibition 50%) (-log10(M)); higher = more potent growth inhibition
Item-by-item account of -log10 GI50
RESULT TYPE: -log10 GI50

{"INPUT SMILES": "Cn1ncc(Cl)c1-c1cc(C(=O)N[C@H](CN)Cc2ccc(F)c(F)c2)oc1Cl", "MEASUREMENT": 7.53}
{"INPUT SMILES": "CCC[C@H](N[C@H]1CCc2cc(F)cc(F)c2C1)C(=O)Nc1cn(C(C)(C)CNCC(C)(C)C)cn1", "MEASUREMENT": 4.58}
{"INPUT SMILES": "CC(=O)NCC(=O)N1[C@@H]2CC[C@H]1c1ccc(Nc3ncc(C(F)(F)F)c(NC4CCC4)n3)cc12", "MEASUREMENT": 5.09}
{"INPUT SMILES": "COc1ccc(-c2cc3c(C)nc(N)nc3n([C@H]3CC[C@H](OCCO)CC3)c2=O)cn1", "MEASUREMENT": 6.92}

// provenance: the supplement of paper PMC3937590
